Provide the reported IC50 of each item.
molecular target: SRC (Homo sapiens, UniProt P12931); assay: Inhibition of a panel of kinases, in vitro HotSpot kinase assay: SRC; type: biochemical; conditions: D-compounds panel data; 1 μM ATP
Sequence (P12931 whole entry): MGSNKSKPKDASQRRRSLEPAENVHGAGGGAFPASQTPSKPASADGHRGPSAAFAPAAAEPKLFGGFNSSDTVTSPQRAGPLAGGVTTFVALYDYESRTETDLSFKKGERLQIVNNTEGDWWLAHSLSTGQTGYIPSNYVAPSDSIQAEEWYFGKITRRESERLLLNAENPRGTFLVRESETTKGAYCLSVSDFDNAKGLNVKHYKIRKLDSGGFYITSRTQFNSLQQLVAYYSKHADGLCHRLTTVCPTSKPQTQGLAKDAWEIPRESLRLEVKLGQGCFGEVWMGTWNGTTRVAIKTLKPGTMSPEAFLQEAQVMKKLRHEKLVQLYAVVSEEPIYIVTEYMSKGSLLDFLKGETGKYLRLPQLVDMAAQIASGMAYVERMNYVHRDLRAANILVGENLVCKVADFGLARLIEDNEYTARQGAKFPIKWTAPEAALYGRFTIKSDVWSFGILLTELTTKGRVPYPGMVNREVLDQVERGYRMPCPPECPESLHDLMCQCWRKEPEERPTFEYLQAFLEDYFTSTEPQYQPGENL

Would you mind telling me what IC50 value was observed for C[C@@H]1[C@H](NC(=O)c2ccc(C(C)(C)CO)cc2)CCCN1c1cnc(C(N)=O)c(Nc2cnn(C)c2)n1 ?
10 to 100 nM

Would you mind telling me what IC50 value was observed for C[C@H]1CC[C@H](NC(=O)c2ccc(C3CC3)cc2)CN1c1cnc(C(N)=O)c(Nc2cnn(C)c2)n1 ?
1000 to 10000 nM

Would you mind telling me what IC50 value was observed for C[C@@H]1[C@H](NC(=O)c2cnn(C(C)(C)C)c2)CCCN1c1cnc(C(N)=O)c(Nc2cnn(C)c2)n1 ?
10 to 100 nM

Would you mind telling me what IC50 value was observed for CN(C)C(=O)N[C@@H]1CCCN(c2cnc(C(N)=O)c(Nc3ccc(C4(C)CCN(C5CCCC5)CC4)cc3)n2)[C@H]1CO ?
100 to 1000 nM

Would you mind telling me what IC50 value was observed for Cn1cc(Nc2nc(N3CCC[C@@H]4[C@H]3CCCN4C(=O)c3ccc(C4CC4)cc3)cnc2C(N)=O)cn1 ?
100 to 1000 nM

Would you mind telling me what IC50 value was observed for Cc1cc(Nc2nc(N3C[C@@H](NC(=O)N(C)C)CC[C@H]3C)cnc2C(N)=O)sn1 ?
100 to 1000 nM

Would you mind telling me what IC50 value was observed for C[C@@H]1[C@H](NC(=O)c2coc(C3CC3)n2)CCCN1c1cnc(C(N)=O)c(Nc2cnn(C)c2)n1 ?
10 to 100 nM
